Collected log10(EC50) values appear next to each entry.
- measurement target: human CB2 receptors (Homo sapiens, UniProt P34972)
- Construct: expressed in transfected cells; host or cells: CHO cells
- Sequence (P34972 whole entry): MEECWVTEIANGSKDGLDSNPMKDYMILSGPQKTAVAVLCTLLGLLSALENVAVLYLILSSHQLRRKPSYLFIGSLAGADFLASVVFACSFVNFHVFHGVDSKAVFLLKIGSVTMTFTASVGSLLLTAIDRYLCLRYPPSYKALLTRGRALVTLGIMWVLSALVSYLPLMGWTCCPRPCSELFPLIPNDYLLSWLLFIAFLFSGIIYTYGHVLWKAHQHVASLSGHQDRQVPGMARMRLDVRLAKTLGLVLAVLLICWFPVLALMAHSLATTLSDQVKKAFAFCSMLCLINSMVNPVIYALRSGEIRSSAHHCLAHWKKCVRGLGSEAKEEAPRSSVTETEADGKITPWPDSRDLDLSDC
- test name: cAMP assay
- Format: cell-based
readout name: log10(EC50) (log10 of the value in nM)

compound	log10(EC50)
Cc1noc(Cn2nc3nc(C(C)(C)C)nc(N4CCC(F)(F)C4)c3n2)n1	0.63
CC(C)(C)c1nc(N2CCC(F)(F)C2)c2nn(Cc3c(Cl)cccc3Cl)nc2n1	0.18
CC(C)(C)c1nc(N2CCC(F)(F)C2)c2nn(C3CCS(=O)(=O)C3)nc2n1 (centres unmarked)	0.60
CC(C)(C)c1nc(N2CCC(F)(F)C2)c2nn(CCc3ccncc3)nc2n1	0.54
CC(C)(C)c1nc(N2CCC(F)(F)C2)c2nn(C3CS(=O)(=O)C3)nc2n1	0.76
CC(C)(C)c1nc(N2CCC(F)(F)C2)c2nn(Cc3c(F)ccc(F)c3Cl)nc2n1	-0.70
CC(C)(C)c1nc(N2CC[C@H](O)C2)c2nn(Cc3ccccc3C(F)(F)F)nc2n1	-0.40
Cn1nnnc1Cn1nc2nc(C(C)(C)C)nc(N3CC[C@H](O)C3)c2n1	1.72
Cn1nnnc1Cn1nc2nc(OCC(C)(C)C)nc(N3CCC(F)(F)C3)c2n1	1.49
CC(C)(C)c1nc(N2CCC(F)(F)C2)c2nn(CC(=O)c3cccc(Cl)c3)nc2n1	1.11
CC(C)(C)c1nc(N2CCC(F)(F)C2)c2nn(Cc3nc(Cl)ccc3Cl)nc2n1	0.04
CC(C)(C)c1nc(N2CC[C@](C)(O)C2)c2nn(CCC(F)(F)F)nc2n1	1.26
CC(C)(C)c1nc(N2CC[C@@](C)(O)C2)c2nn(Cc3ncccc3Cl)nc2n1	1.08
CC(C)(C)c1nc(N2CCC(F)(F)C2)c2nn(Cc3c(F)ccc(Cl)c3Cl)nc2n1	0.74
Cc1nnc(Cn2nc3nc(C(C)(C)C)nc(N4CC5(COC5)C4)c3n2)n1C	1.80
CC(C)(C)c1nc(N2CCC(F)(F)C2)c2nn(Cc3ncccc3Cl)nc2n1	-0.70
CC(C)(C)c1nc(N2CCC(F)(F)C2)c2nn(Cc3cccc(Cl)c3Cl)nc2n1	0.53
Cn1nncc1Cn1nc2nc(C(C)(C)C)nc(N3CC(F)(F)C(F)(F)C3)c2n1	1.00
CC(C)(C)c1nc(N2CC[C@](C)(O)C2)c2nn(Cc3ccccc3Cl)nc2n1	0.40
CC(C)(C)c1nc(N2CCOCC2)c2nn(Cc3ccccc3Cl)nc2n1	0.52

###

The reader will find reported EC50 values listed item by item below.
- measurement target: human CB2 receptors (Homo sapiens, UniProt P34972)
- Construct: expressed in transfected cells; host or cells: CHO cells
- test name: cAMP assay
- Format: cell-based
readout name: EC50 (nM)

compound	units text	observed
CC(C)(C)c1nc(N2CC[C@H](O)C2)c2nn(Cc3nc(Cl)ccc3Cl)nc2n1 [Example 76]	nM	5.9
O[C@H]1CCN(c2nc(OCC(F)(F)F)nc3nn(Cc4ccccc4C(F)(F)F)nc23)C1 [Example 110]	nM	60
CC(C)(C)c1nc(N2CCC(F)(F)C2)c2nn(Cc3c(C(F)(F)F)ccc(Cl)c3Cl)nc2n1 [Example 60]	nM	12.7
CCn1nc2nc(C(C)(C)C)nc(N3CCC(F)(F)C3)c2n1 [Example 3]	nM	18.5
CC(C)(C)c1nc(N2CCC(F)(F)C2)c2nn(Cc3c(F)cccc3Cl)nc2n1 [Example 14]	nM	0.5
C[C@H](Oc1nc(N2CCC(F)(F)C2)c2nn(Cc3ccccc3C(F)(F)F)nc2n1)C(F)(F)F [Example 115]	nM	31.2
CC(C)(C)c1nc(N2CCC(F)(F)C2)c2nn(CC(F)(F)F)nc2n1 [Example 18]	nM	1.4
CC(C)(C)Nc1nc(N2CCC(F)(F)C2)c2nn(Cc3ncccc3Cl)nc2n1 [Example 138]	nM	54
CC(C)(C)c1nc(N2CCC(F)(F)C2)c2nn(CC(=O)c3ccccc3Cl)nc2n1 [Example 47]	nM	0.6
CC(C)(C)c1nc(N2CCC(F)(F)C2)c2nn([C@@H]3CCOC3)nc2n1 [Example 45]	nM	7.6
CC(C)(C)c1nc(N2CCC(F)(F)C2)c2nn(Cc3cc(F)c(F)cc3Cl)nc2n1 [Example 19]	nM	2.2
CC(C)(C)c1nc(N2CCC(F)(F)C2)c2nn(CC(=O)c3cccnc3)nc2n1 [Example 54]	nM	6.5
